Please respond with reported pIC50 for every item in the list.
Biological target: Recombinant Human ENPP-2/Autotaxin (Homo sapiens, UniProt Q13822)
Assay: LysoPLD activity measurement (autotaxin enzyme inhibition, choline release, TOOS reagent)
Settings: LysoPLD inhibitory activity; substrate 14:0 LysoPC; absorbance at 555 nm
pIC50: −log10 of the molar value.

Incoming: Read the entry O=C(O)c1cccc(Cn2c(=O)n(-c3ccc(C(=O)N4CCCC4)cc3)c3cc(Cl)ccc32)c1F [Example 56] and write its reported pIC50.
Outgoing: > 8.00

Incoming: Read the entry O=C(O)c1cccc(Cn2c(=O)n(-c3ccc(N4CCCC4)cc3)c3cc(Cl)ccc32)c1 [Example 29] and write its reported pIC50.
Outgoing: 7.00 to 8.00

Incoming: Read the entry O=C(O)c1cccc(C2(n3c(=O)n(-c4ccc(CN5CCOCC5)cc4)c4cc(Cl)ccc43)CC2)c1 [Example 145] and write its reported pIC50.
Outgoing: 7.00 to 8.00

Incoming: Read the entry O=C(O)c1cccc(C2(n3c(=O)n(-c4ccc(C(=O)N5CCC(F)(F)C5)cc4)c4cc(Cl)ccc43)CC2)c1F [Example 132] and write its reported pIC50.
Outgoing: > 8.00

Incoming: Read the entry O=C(O)c1cccc(C2(n3c(=O)n(-c4ccc(-c5nnc(C6CCOCC6)o5)cc4)c4cc(Cl)ccc43)CC2)c1F [Example 268] and write its reported pIC50.
Outgoing: > 8.00

Incoming: Read the entry CC1(c2ccc(-n3c(=O)n(C4(c5cccc(C(=O)O)c5)CC4)c4ccc(Cl)cc43)cc2)COC1 [Example 247] and write its reported pIC50.
Outgoing: > 8.00

Incoming: Read the entry CCOc1ccc(-n2c(=O)n(Cc3cccc(C(=O)O)c3)c3ccc(Cl)cc32)cc1 [Example 20] and write its reported pIC50.
Outgoing: 7.00 to 8.00

Incoming: Read the entry O=C(O)c1cccc(C2(n3c(=O)n(-c4ccc(Cn5cnc(C(F)(F)F)c5)cc4)c4cc(Cl)ccc43)CC2)c1 [Example 237] and write its reported pIC50.
Outgoing: 7.00 to 8.00

Incoming: Read the entry CN(C)c1ccc(-n2c(=O)n(C3(c4cccc(C(=O)O)c4)CC3)c3ccc(OC(F)(F)F)cc32)cc1 [Example 208] and write its reported pIC50.
Outgoing: 7.00 to 8.00

Incoming: Read the entry CC(C)c1ccc(-n2c(=O)n(Cc3cccc(C(=O)O)c3)c3ccc(Cl)cc32)cc1 [Example 17] and write its reported pIC50.
Outgoing: 6.00 to 7.00

Incoming: Read the entry CC1(C)OCc2cc(-n3c(=O)n(C4(c5cc(F)cc(C(=O)O)c5)CC4)c4ccc(Cl)cc43)ccc21 [Example 252] and write its reported pIC50.
Outgoing: > 8.00

Incoming: Read the entry CS(=O)(=O)Nc1ccc(-n2c(=O)n(Cc3cccc(C(=O)O)c3F)c3ccc(Cl)cc32)cc1 [Example 41] and write its reported pIC50.
Outgoing: 7.00 to 8.00

Incoming: Read the entry C[C@H]1COCCN1C(=O)Cc1ccc(-n2c(=O)n(C3(c4cccc(C(=O)O)c4)CC3)c3ccc(Cl)cc32)cc1 [Example 177] and write its reported pIC50.
Outgoing: 7.00 to 8.00

Incoming: Read the entry CCOc1ccc(-n2c(=O)n(Cc3cccc(C(=O)O)c3)c3ccc(Cl)cc32)cn1 [Example 75] and write its reported pIC50.
Outgoing: 6.00 to 7.00

Incoming: Read the entry CN(C)C(=O)Cc1ccc(-n2c(=O)n(C3(c4cccc(C(=O)O)c4)CC3)c3ncc(Cl)cc32)cc1 [Example 226] and write its reported pIC50.
Outgoing: 7.00 to 8.00
